# measurementProtocol: absolute recovery over vacuum-assisted evaporative concentration; higher = better recovery
# measurementConditions: wastewater influent; enrichment method: VEC
measuredProperty: absolute recovery
Write the figure, then the unit, nothing else.

Worked examples, 4 compounds total:
Cc1c(N)c(=O)n(-c2ccccc2)n1C [4-Aminopyrin (=4-Aminoantipyrin, 4-AA)]    75.5%
O=c1[nH]cc(F)c(=O)[nH]1    69.1%
CC([NH3+])C12CC3CC(CC(C3)C1)C2 (stereo not given)    112%
CC(C)OC(=O)C(C)(C)Oc1ccc(C(=O)c2ccc(Cl)cc2)cc1    98.6%

The record that follows has no absolute recovery shown yet.
What measured absolute recovery goes with `CSc1nc(=O)c(C(C)(C)C)n[n-]1` ?
109%

Where do the numbers come from? From the supplement of paper PMC6470124.
